The values you see were collected from ChEMBL document CHEMBL1141587.

Measured pKi accompanies every entry in the list below.
- system.tested: NPC1-like intracellular cholesterol transporter 1 (Rattus norvegicus, UniProt Q6T3U3)
- Sequence (Q6T3U3 21-1331 limits assumed): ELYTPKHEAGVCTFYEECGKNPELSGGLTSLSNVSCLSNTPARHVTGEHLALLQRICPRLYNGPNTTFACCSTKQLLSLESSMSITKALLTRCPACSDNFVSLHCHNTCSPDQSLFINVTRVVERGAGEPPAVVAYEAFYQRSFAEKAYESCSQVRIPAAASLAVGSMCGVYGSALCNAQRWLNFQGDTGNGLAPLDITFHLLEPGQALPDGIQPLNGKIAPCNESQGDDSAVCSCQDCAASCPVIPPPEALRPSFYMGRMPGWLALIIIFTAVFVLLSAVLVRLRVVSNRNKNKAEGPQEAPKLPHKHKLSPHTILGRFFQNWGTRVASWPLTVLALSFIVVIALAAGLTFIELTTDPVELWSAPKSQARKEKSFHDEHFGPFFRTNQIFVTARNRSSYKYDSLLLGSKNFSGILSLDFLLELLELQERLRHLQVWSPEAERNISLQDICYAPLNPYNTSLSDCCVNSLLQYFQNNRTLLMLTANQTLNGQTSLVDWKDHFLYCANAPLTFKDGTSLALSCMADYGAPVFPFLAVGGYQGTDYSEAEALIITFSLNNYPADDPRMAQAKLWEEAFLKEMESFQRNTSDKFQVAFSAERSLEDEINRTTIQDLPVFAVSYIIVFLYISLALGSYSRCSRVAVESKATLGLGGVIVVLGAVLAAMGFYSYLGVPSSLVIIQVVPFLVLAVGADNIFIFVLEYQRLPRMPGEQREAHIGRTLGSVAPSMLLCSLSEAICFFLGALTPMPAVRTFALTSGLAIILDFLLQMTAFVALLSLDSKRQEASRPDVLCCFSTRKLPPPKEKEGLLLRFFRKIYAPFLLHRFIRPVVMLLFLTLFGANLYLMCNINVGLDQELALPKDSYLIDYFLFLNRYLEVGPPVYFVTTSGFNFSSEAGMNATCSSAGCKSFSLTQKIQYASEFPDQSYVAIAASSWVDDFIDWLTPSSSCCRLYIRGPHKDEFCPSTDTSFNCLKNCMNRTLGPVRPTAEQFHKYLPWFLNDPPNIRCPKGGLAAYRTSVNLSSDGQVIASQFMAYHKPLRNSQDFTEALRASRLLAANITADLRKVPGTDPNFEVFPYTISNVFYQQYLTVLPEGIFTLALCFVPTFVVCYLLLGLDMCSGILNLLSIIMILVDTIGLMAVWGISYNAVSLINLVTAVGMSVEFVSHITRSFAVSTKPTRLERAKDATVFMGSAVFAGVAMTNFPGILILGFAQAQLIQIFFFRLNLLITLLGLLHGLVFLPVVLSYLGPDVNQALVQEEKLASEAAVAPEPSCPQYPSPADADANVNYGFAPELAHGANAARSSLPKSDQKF
- assay.name: Displacement of [3H]ezetimibe-glucuronide from NPC1L1 in Sprague-Dawley rat brush border membrane
Scale: pKi equals -log10([C]), with [C] in mol/L.

Look over these answered cases.
{"sample.smiles": "COc1cccc(OC[C@@H](O)[C@H]2OC(=O)N(c3ccc(F)cc3)[C@@H]2c2ccc(O)cc2)c1", "pKi": 4.82}
{"sample.smiles": "O=C1O[C@H]([C@H](O)COc2ccc(Cl)cc2)[C@@H](c2ccc(O)cc2)N1c1ccc(F)cc1", "pKi": 4.31}
{"sample.smiles": "COc1ccc([C@@H]2[C@@H](C(=O)N3CCc4ccccc4C3)OC(=O)N2c2cccc(F)c2)c(O)c1", "pKi": 5.44}

Then this molecule:
# input Field request: pKi | item: `O=C1O[C@H]([C@H](O)CCc2ccccc2)[C@@H](c2cccc(O)c2)N1c1ccc(F)cc1`
# output 4.48

---

- assay.name: Half life in rat hepatocytes
- Type: ADME, cell-based, Liver, Hepatocyte
Simple rule here: half-life less than 1 h is Satisfied, otherwise Not satisfied.

{"molecule": "O=C1O[C@H]([C@H](O)CCc2ccccc2)[C@@H](c2ccc(O)cc2)N1c1cccc(F)c1", "class.assignment": "Not satisfied"}
{"molecule": "COc1ccc([C@@H]2[C@@H]([C@H](O)CCc3ccccc3)OC(=O)N2c2ccc(F)cc2)c(O)c1", "class.assignment": "Not satisfied"}
{"molecule": "O=C1[C@H](CC[C@H](O)c2ccc(F)cc2)[C@@H](c2ccc(O)cc2)N1c1ccc(F)cc1 [EZETIMIBE]", "class.assignment": "Satisfied"}
{"molecule": "O=C1O[C@H]([C@H](O)CCc2ccccc2)[C@@H](c2ccc(O)cc2O)N1c1ccc(F)cc1", "class.assignment": "Not satisfied"}

Let us examine a further case.
# input Regarding `O=C1O[C@H]([C@H](O)COc2ccc(F)cc2)[C@@H](c2ccc(O)cc2)N1c1ccc(F)cc1` , kindly confirm whether its half-life is beneath 1 h.
# output Not satisfied

---

Measured pKi accompanies every entry in the list below.
- system.tested: NPC1-like intracellular cholesterol transporter 1 (Rattus norvegicus, UniProt Q6T3U3)
- assay.name: Displacement of [3H]ezetimibe-glucuronide from NPC1L1 in Sprague-Dawley rat brush border membrane
Scale: pKi equals -log10([C]), with [C] in mol/L.

Look over these answered cases.
{"sample.smiles": "COc1ccc([C@@H]2[C@@H]([C@H](O)COc3ccc(F)cc3)OC(=O)N2c2cccc(F)c2)c(O)c1", "pKi": 4.55}
{"sample.smiles": "O=C1[C@H](CC[C@H](O)c2ccc(F)cc2)[C@@H](c2ccc(O)cc2)N1c1ccc(F)cc1", "pKi": 6.70}
{"sample.smiles": "O=C1O[C@H]([C@H](O)CCc2ccccc2)[C@@H](c2ccc(O)cc2O)N1c1ccc(F)cc1", "pKi": 5.04}
{"sample.smiles": "O=C1O[C@H]([C@H](O)CCc2ccccc2)[C@@H](c2ccc(F)cc2O)N1c1cccc(F)c1", "pKi": 4.72}
{"sample.smiles": "O=C1O[C@H]([C@H](O)COc2ccc(F)cc2)[C@@H](c2ccc(O)cc2)N1c1ccc(F)cc1", "pKi": 4.55}

Then this compound:
# input Field request: pKi | item: `O=C1O[C@H]([C@H](O)CCc2ccccc2)[C@@H](c2ccc(O)cc2)N1c1cccc(F)c1`
# output 4.96

---

- system.tested: NPC1-like intracellular cholesterol transporter 1 (Rattus norvegicus, UniProt Q6T3U3)
- assay.name: Displacement of [3H]ezetimibe-glucuronide from NPC1L1 in Sprague-Dawley rat brush border membrane
pKi: −log10 of the molar value.
Tick MET if pKi is 5 or greater. Tick NOT MET if pKi is less than 5.

Reference set (2 entries):
{"sample.smiles": "COc1ccc([C@@H]2[C@@H]([C@H](O)CCc3ccccc3)OC(=O)N2c2ccc(F)cc2)c(OC)c1", "class.assignment": "NOT MET"}
{"sample.smiles": "O=C1O[C@H]([C@H](O)CCc2ccccc2)[C@@H](c2ccc(O)cc2)N1c1ccccc1F", "class.assignment": "NOT MET"}

# input API: above_or_equal(metric=pKi, cutoff=5) for item `COc1ccc(OC[C@@H](O)[C@H]2OC(=O)N(c3ccc(F)cc3)[C@@H]2c2ccc(O)cc2)cc1`
# output NOT MET

# input API: above_or_equal(metric=pKi, cutoff=5) for item `COc1cccc([C@@H]2[C@@H]([C@H](O)CCc3ccccc3)OC(=O)N2c2cccc(F)c2)c1O`
# output MET

# input API: above_or_equal(metric=pKi, cutoff=5) for item `COc1ccc([C@@H]2[C@@H]([C@H](O)CCc3ccccc3)OC(=O)N2c2cccc(F)c2)c(O)c1`
# output MET

# input API: above_or_equal(metric=pKi, cutoff=5) for item `O=C1O[C@H]([C@H](O)CCc2ccccc2)[C@@H](c2ccc(O)cc2)N1c1ccc(F)cc1`
# output NOT MET

# input API: above_or_equal(metric=pKi, cutoff=5) for item `O=C(O)[C@H]1O[C@@H](Oc2ccc([C@@H]3[C@@H](CC[C@H](O)c4ccc(F)cc4)C(=O)N3c3ccc(F)cc3)cc2)[C@H](O)[C@@H](O)[C@@H]1O`
# output MET

---

- system.tested: NPC1-like intracellular cholesterol transporter 1 (Rattus norvegicus, UniProt Q6T3U3)
- assay.name: Displacement of [3H]ezetimibe-glucuronide from NPC1L1 in Sprague-Dawley rat brush border membrane
readout: Ki (µM)
Express it in µM; write the number only.

Look over these answered cases.
{"sample.smiles": "O=C(NCc1ccc(F)cc1)[C@H]1OC(=O)N(c2ccc(F)cc2)[C@@H]1c1ccc(O)cc1", "Ki [µM]": 30}
{"sample.smiles": "COc1cccc(OC[C@@H](O)[C@H]2OC(=O)N(c3cccc(F)c3)[C@@H]2c2ccc(OC)cc2O)c1", "Ki [µM]": 8.7}
{"sample.smiles": "O=C1O[C@H](CC[C@H](O)c2ccc(F)cc2)[C@@H](c2ccc(O)cc2)N1c1ccc(F)cc1", "Ki [µM]": 9.9}

Then this molecule:
# input Field request: Ki | item: `O=C1O[C@H]([C@H](O)CCc2ccccc2)[C@@H](c2cc(F)ccc2O)N1c1cccc(F)c1`
# output 18

---

- system.tested: NPC1-like intracellular cholesterol transporter 1 (Rattus norvegicus)
- assay.name: Displacement of [3H]ezetimibe-glucuronide from NPC1L1 in Sprague-Dawley rat brush border membrane
readout: Ki (µM)
Express it in µM; write the number only.

Look over these answered cases.
{"sample.smiles": "Cc1ccc([C@@H]2[C@@H]([C@H](O)CCc3ccccc3)OC(=O)N2c2cccc(F)c2)c(O)c1", "Ki / µM": 16}
{"sample.smiles": "COc1ccc([C@@H]2[C@@H]([C@H](O)CCc3ccccc3)OC(=O)N2c2ccc(F)cc2)c(O)c1", "Ki / µM": 4.8}
{"sample.smiles": "CN(Cc1ccc(F)cc1)C(=O)[C@H]1OC(=O)N(c2ccc(F)cc2)[C@@H]1c1ccc(O)cc1", "Ki / µM": 14}
{"sample.smiles": "O=C1O[C@H]([C@H](O)CNc2ccc(F)cc2)[C@@H](c2ccc(O)cc2)N1c1ccc(F)cc1", "Ki / µM": 19}
{"sample.smiles": "O=C1O[C@H]([C@H](O)CCc2ccccc2)[C@@H](c2ccccc2O)N1c1ccc(F)cc1", "Ki / µM": 12}
{"sample.smiles": "COc1ccc([C@@H]2[C@@H](C(=O)N(C)Cc3ccc(F)cc3)OC(=O)N2c2cccc(F)c2)c(O)c1", "Ki / µM": 1.4}

Then this molecule:
# input Field request: Ki | item: `COc1cccc(CN(C)C(=O)[C@H]2OC(=O)N(c3ccc(F)cc3)[C@@H]2c2ccc(O)cc2)c1`
# output 11
